ASSAY_SYSTEM: Recombinant EpCAM (R&D systems), conjugated with Alexa Fluor 647 (UniProt P16422)
PROTOCOL_TEXT: flow cytometry, AF647-labelled recombinant EpCAM at 360nM on HEK293T cells expressing the myc-tagged CAR; ratio to anti-myc-FITC signal
Provide the reported MFIAF647/MFIFITC of each item.
No unit in the answer, only the number.

Name the recorded MFIAF647/MFIFITC of the item CAR containing Y6F scFv (UBS-54 variant, CDR-H3 DPFLHF) (from UniProt P01732 138-182; P10747 153-220; P20963 52-164) in your answer.
0.239

# return recorded MFIAF647/MFIFITC for entry CAR containing D1A scFv (UBS-54 variant, CDR-H3 APFLHY) (from UniProt P01732 138-182; P10747 153-220; P20963 52-164)
0.246

Tell me MFIAF647/MFIFITC reported for CAR containing Y6L scFv (UBS-54 variant, CDR-H3 DPFLHL) (from UniProt P01732 138-182; P10747 153-220; P20963 52-164)
0.031
